Data origin, for the record: ChEMBL document CHEMBL1150245

Measured log10 of CC50 by item
# Measurement protocol: Cytotoxicity against human HGF cells
# Format: cell-based
Attribute measured: log10 of CC50 (log10 of the value in µM)

C=C(CN(C)C)C(=O)c1ccc(C)cc1 :: 0.79
COc1ccc(C(=O)C(CO)CN(C)C)cc1 (configuration not stated) :: 0.60
C=C(CN(C)C)C(=O)c1ccc([N+](=O)[O-])cc1 :: 1.29
CN(C)CC(CO)C(=O)c1ccc([N+](=O)[O-])cc1 (configuration not stated) :: 2.43
C=C(CN(C)C)C(=O)c1ccc(OC)cc1 :: 0.83
CN(C)CC(CO)C(=O)c1ccc(Cl)cc1 (configuration not stated) :: 0.76
CN(C)CC(CSCCO)C(=O)c1ccc([N+](=O)[O-])cc1 (configuration not stated) :: 2.59
Cc1ccc(C(=O)C(CO)CN(C)C)cc1 (configuration not stated) :: 0.69
C=C(CN(C)C)C(=O)c1ccccc1 :: 1.41
CN(C)CC(CO)C(=O)c1ccccc1 (configuration not stated) :: 0.64
C=C(CN(C)C)C(=O)c1ccc(Cl)cc1 :: 0.79

###

Measured CC50 by item
# Tested on: HL-60
# Measurement protocol: Cytotoxicity against human HL60 cells
# Type: functional
Attribute measured: CC50

CN(C)CC(CO)C(=O)c1ccccc1 (configuration not stated) :: 0.41 µM
C=C(CN(C)C)C(=O)c1ccccc1 :: 12 µM
C=C(CN(C)C)C(=O)c1ccc([N+](=O)[O-])cc1 :: 1.6 µM
C=C(CN(C)C)C(=O)c1ccc(C)cc1 :: 0.45 µM
CN(C)CC(CSCCO)C(=O)c1ccc([N+](=O)[O-])cc1 (configuration not stated) :: 353 µM
Cc1ccc(C(=O)C(CO)CN(C)C)cc1 (configuration not stated) :: < 3.1 µM
CN(C)CC(CO)C(=O)c1ccc(Cl)cc1 (configuration not stated) :: < 3.1 µM
C=C(CN(C)C)C(=O)c1ccc(OC)cc1 :: < 3.4 µM
COc1ccc(C(=O)C(CO)CN(C)C)cc1 (configuration not stated) :: 0.46 µM
N[C@@H](Cc1ccc(N(CCCl)CCCl)cc1)C(=O)O :: 6 µM
CN(C)CC(CO)C(=O)c1ccc([N+](=O)[O-])cc1 (configuration not stated) :: 35 µM
C=C(CN(C)C)C(=O)c1ccc(Cl)cc1 :: < 3.1 µM

###

# Test system: L1210
# Measurement protocol: Cytotoxicity against mouse L1210 cells after 48 hrs
# Measurement conditions: L1210, 48 h
Attribute measured: log10(IC50) (log10 of the value in µM)

C=C(CN(C)C)C(=O)c1ccc([N+](=O)[O-])cc1 :: 0.94
C=C(CN(C)C)C(=O)c1ccc(C)cc1 :: 1.05
CN(C)CC(CO)C(=O)c1ccc(Cl)cc1 (centres undefined) :: 1.34
COc1ccc(C(=O)C(CO)CN(C)C)cc1 (centres undefined) :: 0.20
CN(C)CC(CO)C(=O)c1ccc([N+](=O)[O-])cc1 (centres undefined) :: 1.63
CN(C)CC(CO)C(=O)c1ccccc1 (centres undefined) :: 0.22
Cc1ccc(C(=O)C(CO)CN(C)C)cc1 (centres undefined) :: 0.82
C=C(CN(C)C)C(=O)c1ccc(Cl)cc1 :: 1.42

###

# Measurement protocol: Cytotoxicity against human HPC cells
# Assay type: cell-based
Threshold 30 µM: CC50 strictly smaller gives 1 (yes), otherwise 0 (no).

CN(C)CC(CSCCO)C(=O)c1ccc([N+](=O)[O-])cc1 (configuration not stated) :: 0 (no)
C=C(CN(C)C)C(=O)c1ccccc1 :: 0 (no)
C=C(CN(C)C)C(=O)c1ccc(C)cc1 :: 1 (yes)
COc1ccc(C(=O)C(CO)CN(C)C)cc1 (configuration not stated) :: 1 (yes)
CN(C)CC(CO)C(=O)c1ccc(Cl)cc1 (configuration not stated) :: 1 (yes)
CN(C)CC(CO)C(=O)c1ccc([N+](=O)[O-])cc1 (configuration not stated) :: 0 (no)
N[C@@H](Cc1ccc(N(CCCl)CCCl)cc1)C(=O)O :: 0 (no)
C=C(CN(C)C)C(=O)c1ccc(OC)cc1 :: 1 (yes)
CN(C)CC(CO)C(=O)c1ccccc1 (configuration not stated) :: 1 (yes)
C=C(CN(C)C)C(=O)c1ccc(Cl)cc1 :: 1 (yes)
Cc1ccc(C(=O)C(CO)CN(C)C)cc1 (configuration not stated) :: 1 (yes)
